Molecular target: recombinant 17bHSD4 (M1-N311) (Homo sapiens (Human))
Sequence (P51659 1-311): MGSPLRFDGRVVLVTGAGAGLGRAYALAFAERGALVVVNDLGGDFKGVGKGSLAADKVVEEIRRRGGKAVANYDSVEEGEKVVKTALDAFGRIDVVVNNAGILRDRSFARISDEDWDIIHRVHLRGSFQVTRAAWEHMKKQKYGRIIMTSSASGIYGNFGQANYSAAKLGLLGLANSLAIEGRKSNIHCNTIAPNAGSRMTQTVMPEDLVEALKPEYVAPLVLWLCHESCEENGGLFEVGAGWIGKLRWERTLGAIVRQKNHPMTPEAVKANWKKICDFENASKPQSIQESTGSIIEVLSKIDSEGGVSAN
Test: In Vitro 17bHSD4 Enzyme Assay
Settings: 40 nM 17bHSD4, 0.125 mM NAD, 15 μM Estradiol, 1.5 h; NADH fluorescence; read-out: 17HSD17b4 Enzyme assay IC50
quantity name: IC50 (µM)
Give a bare numeral; the unit µM is implied.

O=C(c1cc(-c2cc(F)c(F)c(O)c2F)on1)N1CC[C@H](c2ccccc2)C1 : 9.6
O=C(c1nnc(-c2ccc(F)c(O)c2)o1)N1CC[C@H](c2ccccc2)C1 : 32.4
Cn1nnc(-c2cnc(N3CCN(C(=O)c4noc(-c5cc(F)c(F)c(O)c5F)n4)CC3)c(Cl)c2)n1 : 4
O=C(c1noc(-c2cc(F)c(F)c(O)c2F)n1)N1CCC(OCc2ccccc2)C1 (stereo not drawn) : 26.2

Tested on recombinant 17bHSD4 (M1-N311) (Homo sapiens (Human)), the item CC(C)CC1CN(C(=O)c2noc(-c3cc(F)c(F)c(O)c3F)n2)CCO1 (stereo not drawn) showed IC50 equal to 47.4

Tested on recombinant 17bHSD4 (M1-N311) (Homo sapiens (Human)), the item O=C(c1noc(-c2cc(F)c(F)c(O)c2F)n1)N1CCN(c2nc3ccccc3o2)CC1 showed IC50 equal to 19

Tested on recombinant 17bHSD4 (M1-N311) (Homo sapiens (Human)), the item O=C(c1noc(-c2cc(F)c(F)c(O)c2F)n1)N1CCOC2(CCC2)C1 showed IC50 equal to 34.6

Tested on recombinant 17bHSD4 (M1-N311) (Homo sapiens (Human)), the item O=C(c1ccc(-c2cc(F)c(F)c(O)c2F)s1)N1CC[C@H](c2ccccc2)C1 showed IC50 equal to 8.5

Tested on recombinant 17bHSD4 (M1-N311) (Homo sapiens (Human)), the item O=C(c1noc(-c2cc(F)c(F)c(O)c2F)n1)N1CCCC(OCc2ccccc2)C1 (stereo not drawn) showed IC50 equal to 23.6

Tested on recombinant 17bHSD4 (M1-N311) (Homo sapiens (Human)), the item N#Cc1ccc2c(c1)CCN(C(=O)c1noc(-c3cc(F)c(F)c(O)c3F)n1)C2 showed IC50 equal to 11.5

Tested on recombinant 17bHSD4 (M1-N311) (Homo sapiens (Human)), the item CCCC1CCN(C(=O)c2noc(-c3cc(F)c(F)c(O)c3F)n2)C1 (stereo not drawn) showed IC50 equal to 44.8

Tested on recombinant 17bHSD4 (M1-N311) (Homo sapiens (Human)), the item O=C(c1noc(-c2cc(F)c(F)c(O)c2F)n1)N1CC[C@@H](c2ccc(Cl)cc2)C1 showed IC50 equal to 6.5

Tested on recombinant 17bHSD4 (M1-N311) (Homo sapiens (Human)), the item C[C@@H]1CN(C(=O)c2ccc(-c3cc(F)c(F)c(O)c3F)s2)C[C@H](C)O1 showed IC50 equal to 31.5

Tested on recombinant 17bHSD4 (M1-N311) (Homo sapiens (Human)), the item N#Cc1c(C(=O)N2Cc3ccc(F)cc3C2)noc1-c1cc(F)c(F)c(O)c1F showed IC50 equal to 17.8

Tested on recombinant 17bHSD4 (M1-N311) (Homo sapiens (Human)), the item O=C(c1noc(-c2cc(F)c(F)c(O)c2F)n1)N1CC2CCC(C1)C2(F)F showed IC50 equal to 39

Tested on recombinant 17bHSD4 (M1-N311) (Homo sapiens (Human)), the item O=C(c1noc(-c2cc(F)c(F)c(O)c2F)n1)N1CCCCC1 showed IC50 equal to 38.4

Tested on recombinant 17bHSD4 (M1-N311) (Homo sapiens (Human)), the item O=C(c1noc(-c2cc(F)c(F)c(O)c2F)n1)N1CC[C@H](c2ccc(Cl)cc2)C1 showed IC50 equal to 6.9

Tested on recombinant 17bHSD4 (M1-N311) (Homo sapiens (Human)), the item O=C(c1noc(-c2cc(F)c(F)c(O)c2F)n1)N1CCN(CCCOc2ccc(F)cc2)CC1 showed IC50 equal to 32.3

Tested on recombinant 17bHSD4 (M1-N311) (Homo sapiens (Human)), the item COc1ccccc1C1CCN(C(=O)c2noc(-c3cc(F)c(F)c(O)c3F)n2)C1 (stereo not drawn) showed IC50 equal to 6.1

Tested on recombinant 17bHSD4 (M1-N311) (Homo sapiens (Human)), the item N#Cc1cccc2c1CCN(C(=O)c1noc(-c3c(F)c(O)c(F)c(F)c3I)n1)C2 showed IC50 equal to 11.7
